# key: entry, value: K
- Species: Rattus norvegicus
- Test description: Open TG-GATES - Regimen: Single
- Format: toxicity, organism-based, Sprague-Dawley
- Parameters: regimen Single, gender Male, age 6 weeks
- Study conditions: in vivo, po, 1000 mg/kg, 24 h, tissue Plasma, route gavage, dose level High
Give the value, in units of meq/L, as a plain number.

Compound: COC1=CC(=O)C[C@@H](C)[C@]12Oc1c(Cl)c(OC)cc(OC)c1C2=O
K / meq/L: 4
--
Compound: CC(C)OC(=O)C(C)(C)Oc1ccc(C(=O)c2ccc(Cl)cc2)cc1 [FENOFIBRATE]
K / meq/L: 4.3
--
Compound: CCOC(=O)CCC(=O)O[C@H]1[C@H](O[C@@H]2[C@@H](C)[C@H](O[C@H]3C[C@@](C)(OC)[C@@H](O)[C@H](C)O3)[C@@H](C)C(=O)O[C@H](CC)[C@@](C)(O)[C@H](O)[C@@H](C)C(=O)[C@H](C)C[C@@]2(C)O)O[C@H](C)C[C@@H]1N(C)C [ERYTHROMYCIN ETHYLSUCCINATE]
K / meq/L: 4.3

Prompt: Would you kindly share the measured K for COc1ccc2[nH]c([S+]([O-])Cc3ncc(C)c(OC)c3C)nc2c1 (centres undefined) ?
Completion: 4.2
